Tested on: T-47D breast
Assay: NCI tumour cell line growth inhibition, 48 h
Mark fulfilled for reported TGI of 40 µM or greater; mark not fulfilled for anything smaller.

Say whether Cc1ccc(O)c(C(c2ccc(C(c3cc(C)ccc3O)c3cc(C)ccc3O)cc2)c2cc(C)ccc2O)c1 shows TGI of 40 µM or more.
not fulfilled

---

System: NCI-H226 lung
Test: NCI tumour cell line growth inhibition, 48 h
PARAMETER: TGI

Worked cases, TGI given:
c1ccc2c(c1)SC1=C(SC(=C3SC4=C(S3)Sc3ccccc3S4)S1)S2
> 100 µM
CNC(=O)NCC1OC(n2cnc3c(NC(=O)Nc4ccccc4)ncnc32)C(O[Si](C)(C)C(C)(C)C)C1CC(=O)N(C)OC (configuration not stated)
> 100 µM

response.value for Clc1cccc(Cl)c1C1SCc2nc3ccccc3n21 (configuration not stated) (field: TGI) = > 100 µM

response.value for Clc1ccc(OCc2nn3c(CCCCc4nnc5sc(COc6ccc(Cl)cc6Cl)nn45)nnc3s2)c(Cl)c1 (field: TGI) = > 100 µM

response.value for O=c1c(-c2ccccc2)c2n(c3ccccc13)CCN2 (field: TGI) = > 100 µM

response.value for COc1cc(OC)c2c(c1-c1ccc(C)cc1)CC(C)N(Cc1ccccc1)[C@H]2C (some centres not stated) (field: TGI) = > 100 µM

response.value for CC1(CO)COC(C)(C)OC1 (field: TGI) = > 100 µM

response.value for C[C@H](CCC(=O)O)[C@H]1CC[C@H]2[C@@H]3CC[C@@H]4C[C@H](O)CC[C@]4(C)[C@H]3CC[C@]12C (field: TGI) = > 100 µM

response.value for O=C1c2[nH]c3ccccc3c2CCN2CCCCC12 (configuration not stated) (field: TGI) = 48.8 µM

response.value for C=CCOC(C)n1c(C)cc(=O)n(C(C)OCC=C)c1=O (configuration not stated) (field: TGI) = > 100 µM

response.value for CO[C@@H]1C[C@H](OC(N)=O)[C@@H]2C=C[C@@H]3/C=C(C)/C=C/[C@@H](C)[C@H]([C@H](C)[C@H](O)[C@@H](C)NC(C)=O)OC(=O)/C=C/C=C(C)\C=C\[C@]3(C)[C@@H]2C1 (field: TGI) = < 0.01 µM

response.value for C=CCSc1ncnc2c1ncn2C1OC(CO)C(O)C1O (configuration not stated) (field: TGI) = > 100 µM

---

System: SK-MEL-5 melanoma
Assay: NCI tumour cell line growth inhibition, 48 h
PARAMETER: TGI (µM)
The reply should contain only the number, in µM.

COc1ccc(NC2=NCCO2)c2c1CCCC2
33.7
Cc1nc2ccccn2c1N=Nc1ccc(C(=O)NN)cc1
69.1
Cc1ccc(O)c(C(c2ccc(C(c3cc(C)ccc3O)c3cc(C)ccc3O)cc2)c2cc(C)ccc2O)c1
3.22

As a next step, examine the compound that follows.
response.value for CC1(C)C(N(O)C(=O)Nc2ccc(Cl)cc2)N(c2ccc(Cl)cc2)C(=O)N1CC(=O)N/N=C/C=C/c1ccc([N+](=O)[O-])o1 (stereo not given) (field: TGI) = 2.76

---

Let's look at some molecules and their measured TGI.
Test system: HOP-92 NSCLC
Test: NCI tumour cell line growth inhibition, 48 h

Worked cases, TGI given:
O=C(c1nc2ccc(Cl)cc2[nH]c1=O)C(O)c1ccccc1 (stereo not given)
> 100 µM
c1ccc2c(c1)SC1=C(SC(=C3SC4=C(S3)Sc3ccccc3S4)S1)S2
> 100 µM
COc1cc2ccnc(C=O)c2cc1OC
5.93 µM
O=[N+]([O-])c1ccc2c(c1)Sc1ccccc1N2
> 100 µM
Cc1[nH]c(=O)[nH]c(=S)c1C(=O)NC1C2CCCCC2NC2CCCCC21 (stereo not given)
33.6 µM

response.value for CCOC(=O)C(=O)/C(=C/n1c(=S)[nH]c2ccc([N+](=O)[O-])cc21)C(=O)OCC (field: TGI) = > 100 µM

response.value for CCC1(c2ccc(N3C(=O)c4ccccc4C3=O)cc2)CCC(=O)NC1=O (stereo not given) (field: TGI) = > 10 µM

response.value for Cc1cc2c(O)c(c1)COCc1cc(C)cc(c1O)COCc1cc(C)cc(c1O)COC2 (field: TGI) = > 100 µM

response.value for NCCCCCCCCCCn1c2c(c3ccccc3c1=O)C(=O)c1ccccc1-2 (field: TGI) = 7.49 µM

response.value for Clc1ccc(OCc2nn3c(CCCCc4nnc5sc(COc6ccc(Cl)cc6Cl)nn45)nnc3s2)c(Cl)c1 (field: TGI) = > 100 µM
